target.or.test.system: Glutathionylspermidine synthase (Crithidia fasciculata) (UniProt P90518)
Sequence (whole entry): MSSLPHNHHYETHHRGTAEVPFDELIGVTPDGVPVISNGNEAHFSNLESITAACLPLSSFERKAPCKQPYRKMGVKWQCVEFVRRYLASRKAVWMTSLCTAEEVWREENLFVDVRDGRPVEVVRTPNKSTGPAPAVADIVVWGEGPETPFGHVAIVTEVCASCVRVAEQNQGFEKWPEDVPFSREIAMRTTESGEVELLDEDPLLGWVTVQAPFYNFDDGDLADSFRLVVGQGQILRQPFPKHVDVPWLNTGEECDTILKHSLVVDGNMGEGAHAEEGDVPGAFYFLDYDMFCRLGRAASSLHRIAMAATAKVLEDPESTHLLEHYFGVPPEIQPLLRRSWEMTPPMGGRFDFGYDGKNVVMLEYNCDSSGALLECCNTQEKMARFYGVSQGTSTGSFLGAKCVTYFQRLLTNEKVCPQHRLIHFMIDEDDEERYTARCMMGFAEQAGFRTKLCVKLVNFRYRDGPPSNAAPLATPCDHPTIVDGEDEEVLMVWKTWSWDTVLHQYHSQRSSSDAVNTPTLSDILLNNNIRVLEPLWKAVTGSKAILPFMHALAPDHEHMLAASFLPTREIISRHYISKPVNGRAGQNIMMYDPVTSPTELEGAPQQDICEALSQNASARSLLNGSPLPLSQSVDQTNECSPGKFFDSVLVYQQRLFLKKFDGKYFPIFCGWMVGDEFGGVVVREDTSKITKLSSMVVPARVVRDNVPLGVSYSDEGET
assay.info: Compound was tested for inhibitory activity against glutathionylspermidine synthetase in the presence of 5 mM glutathione and spermidine.
observed.property: inhibition (%)

Observe how each entry below is paired with its result.
compound	result.unit	inhibition
COC(=O)CCP(=O)(O)CNC(=O)[C@@H](NC(=O)[C@@H](N)CCC(=O)O)C(C)C	%	71
CC(C)C[C@H](NC(=O)[C@@H](N)CCC(=O)O)C(=O)NCCCP(=O)(O)O	%	24
CC(C)[C@H](NC(=O)[C@@H](N)CCC(=O)O)C(=O)NCP(C)(=O)O	%	26

P = CC(C)[C@H](NC(=O)[C@@H](N)CCC(=O)O)C(=O)NC[PH](=O)O
Q = CC(C)[C@H](NC(=O)[C@@H](N)CCC(=O)O)C(=O)NCP(=O)(O)O
Request: Just curious, which one has the larger inhibition reading, P or Q ? Give the label under which the chosen entry appears.
Response: Q

1 = CC(C)C[C@H](NC(=O)[C@@H](N)CCC(=O)O)C(=O)NCP(=O)(O)O
2 = CC(C)[C@H](NC(=O)[C@@H](N)CCC(=O)O)C(=O)NCC(N)CP(=O)(O)O (stereo partly specified)
Request: Which has the smaller recorded inhibition, 1 or 2 ? Record your answer as the label of the chosen record.
Response: 2

1 = CC(C)C[C@H](NC(=O)[C@@H](N)CCC(=O)O)C(=O)NCC(=O)CP(=O)(O)O
2 = CC(C)[C@H](NC(=O)[C@@H](N)CCC(=O)O)C(=O)NC(C)P(C)(=O)O (stereo partly specified)
Request: Please indicate which entry, 1 or 2 , has the lower recorded inhibition value. // respond with label for picked entry
Response: 2
(2: 14%, 1: 62%)

====

target.or.test.system: UniProt P90518
Sequence (whole entry): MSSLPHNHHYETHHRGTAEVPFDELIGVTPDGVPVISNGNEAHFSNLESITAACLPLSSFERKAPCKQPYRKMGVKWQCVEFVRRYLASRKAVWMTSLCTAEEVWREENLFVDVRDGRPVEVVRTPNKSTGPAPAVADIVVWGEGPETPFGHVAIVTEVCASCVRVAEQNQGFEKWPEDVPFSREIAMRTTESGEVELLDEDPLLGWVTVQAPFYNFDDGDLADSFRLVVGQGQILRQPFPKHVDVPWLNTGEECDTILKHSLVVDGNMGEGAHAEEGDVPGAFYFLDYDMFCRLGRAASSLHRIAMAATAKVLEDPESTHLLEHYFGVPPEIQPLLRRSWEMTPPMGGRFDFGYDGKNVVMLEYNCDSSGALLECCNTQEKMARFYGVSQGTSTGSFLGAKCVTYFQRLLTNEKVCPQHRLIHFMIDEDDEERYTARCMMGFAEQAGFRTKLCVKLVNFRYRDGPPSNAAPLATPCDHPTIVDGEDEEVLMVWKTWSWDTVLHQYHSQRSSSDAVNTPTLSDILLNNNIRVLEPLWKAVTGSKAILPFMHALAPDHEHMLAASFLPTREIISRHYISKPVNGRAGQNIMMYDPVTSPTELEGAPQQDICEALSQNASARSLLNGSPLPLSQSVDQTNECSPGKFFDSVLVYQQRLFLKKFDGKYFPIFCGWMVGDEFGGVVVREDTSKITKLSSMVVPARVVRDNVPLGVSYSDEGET
assay.info: Compound was tested for inhibitory activity against glutathionylspermidine synthetase in the presence of 5 mM glutathione and spermidine; Not inhibition
observed.property: inhibition

Check out these entries, answers already filled in.
molecule	inhibition
CC(C)[C@H](NC(=O)[C@@H](N)CCC(=O)O)C(=O)NCC(O)CP(=O)(O)O (stereo not given in full)	No inhibition
CC(C)C[C@H](NC(=O)[C@@H](N)CCC(=O)O)C(=O)Nc1ccc(CP(=O)(O)O)cc1	No inhibition
CC(C)[C@H](NC(=O)[C@@H](N)CCC(=O)O)C(=O)NCC(=O)CP(=O)(O)O	No inhibition
CC(C)[C@H](NC(=O)[C@@H](N)CCC(=O)O)C(=O)NCCCP(=O)(O)O	No inhibition

Now examine the next entry.
Request: State the recorded inhibition for this entry: `CC(C)[C@H](NC(=O)[C@@H](N)CCC(=O)O)C(=O)NCCP(=O)(O)O`
Response: No inhibition
